Provenance of the data: PubChem BioAssay AID463173

# Tested on: DeltatarO mutant
# protocol: S. aureus survival, RN4220 and DeltatarO strains – OD600, teichoic acid synthesis inhibitors, primary screen (AID 463173)
# experimental_conditions: S. aureus RN4220 wild type/DeltatarO growth, OD600, 18 h, screened at 18.75 µg/mL (by protocol)
In all, about 52,000 compounds went through this assay and about 4,300 (8.3%) were called active. Rule as the data show it: active = survival mostly below about 52% (no sharp cut-off); inactive = mostly above about 56%. The list comes from a sample in which actives are over-represented; it also holds close analogues and randomly drawn compounds.
Labels: 1.0 = active, 0.0 = inactive

>>> cat("O=C(CSCc1ccccc1Cl)N1CCN(c2ccc(F)cc2)CC1")
1.0
>>> cat("Cc1ccc(C)c(N2CCN(C(=O)c3cc4c(=O)n(Cc5ccccc5)ccc4nc3C)CC2)c1")
0.0
>>> cat("COc1cccc(C2CC(=O)Nc3c2c(=O)n(C)c2nc4ccccc4n32)c1 (centres undefined)")
0.0
>>> cat("O=C(Nc1cccc(F)c1)c1oc2ccccc2c1NC(=O)C12CC3CC(CC(C3)C1)C2")
0.0
>>> cat("Cc1cc(C)cc(Nc2cc(-c3ccccc3)nc(C)n2)c1")
1.0
>>> cat("Cc1cc(F)ccc1S(=O)(=O)NCC(c1ccco1)S(=O)(=O)c1cccs1 (centres undefined)")
0.0
>>> cat("COC(=O)C1=C(c2ccccc2)c2ccccc2S(=O)(=O)N1CC(=O)Nc1ccccc1Cl")
0.0
>>> cat("CCS(=O)(=O)c1nc(S(=O)(=O)c2ccc(C)cc2)c(NC)s1")
0.0
>>> cat("O=C(CNS(=O)(=O)c1ccc(Cl)cc1)NN=C1CCCCC1")
0.0
>>> cat("COc1ccc(CNC(=O)C2(c3cccs3)CCOCC2)cc1")
0.0
>>> cat("CC(C)(C)c1ccc(C(=O)NCC(=O)OCc2cc(=O)n3nc(C4CC4)sc3n2)cc1")
0.0
>>> cat("O=C1c2ccccc2-c2nc3ncnn3c(-c3ccc4c(c3)OCO4)c21")
1.0
>>> cat("CCc1ccccc1NC(=O)CSc1nnc(-c2cc(OC)c(OC)c(OC)c2)o1")
0.0
>>> cat("CC(=O)c1cccc(NC(=O)CSc2nc3c(=O)n(C)c(=O)n(C)c3n2C)c1")
0.0
>>> cat("Cc1nc(Nc2ccc(Cl)cc2)cc(-c2ccccc2)n1")
1.0
>>> cat("Cc1nc2ccn(Cc3cccnc3)c(=O)c2cc1C(=O)N1CCN(c2ccccc2)CC1")
0.0
>>> cat("Cc1nc2ccn(Cc3cccs3)c(=O)c2cc1C(=O)Nc1ccccc1")
0.0
>>> cat("COc1ccc(C(=O)Nc2nc3c(s2)CCCC3)cc1Cl")
0.0
>>> cat("Cc1cc(C)c(S(=O)(=O)NCC(c2ccco2)S(=O)(=O)c2cccs2)c(C)c1 (centres undefined)")
1.0
>>> cat("COc1ccc(OCC(=O)Nc2ccc3c(c2)OCO3)cc1")
0.0
>>> cat("Cc1cc(S(=O)(=O)NCC(c2ccco2)S(=O)(=O)c2cccs2)ccc1F (centres undefined)")
0.0
>>> cat("CCOc1ccc(CNC(=O)c2ccc(NC(=O)N3CCCCc4ccccc43)cc2)cc1OC")
0.0
>>> cat("Cc1nc2ccn(Cc3cccs3)c(=O)c2cc1C(=O)NCc1ccc(Br)cc1")
0.0
>>> cat("CSc1nc(Nc2ccc(C)cc2C)cc(-c2ccccc2)n1")
0.0
>>> cat("COc1cccc2c1ncc1c(-c3ccc(C)cc3)nn(-c3cccc([N+](=O)[O-])c3)c12")
0.0
>>> cat("O=C(CCSCc1ccccc1Cl)N1CCN(c2ccc(F)cc2)CC1")
0.0
>>> cat("O=C(CSc1n[nH]c(-c2ccc(F)cc2)n1)N1CCN(c2ccc(F)cc2)CC1")
1.0
>>> cat("CCc1ccc(CNC(=O)c2cc3c(=O)n(Cc4cccs4)ccc3nc2C)cc1")
1.0
>>> cat("O=S(=O)(NCC(c1ccco1)S(=O)(=O)c1cccs1)c1ccc(Cl)cc1 (centres undefined)")
0.0
>>> cat("CSc1nc(Nc2ccc(F)cc2)cc(-c2ccccc2)n1")
1.0
>>> cat("Cc1cccc(-n2ccnc2SCC(=O)Nc2nc3ccccc3s2)c1")
0.0
>>> cat("CNC(=O)C1CCC(Cn2c(=O)c3sccc3n(CC(=O)Nc3ccc(C)c(C)c3)c2=O)CC1 (centres undefined)")
0.0
>>> cat("Cc1ccc(C)c(Cn2c(SCC(=O)NCc3ccccc3)nc3ccccc32)c1")
0.0
>>> cat("COc1ccc(NC(=O)c2cc3c(=O)n(Cc4cccs4)ccc3nc2C)cc1")
0.0
>>> cat("COc1ccc(N(C)C(=O)c2nn(-c3ccc(C)cc3)c(=O)n(C)c2=O)c(OC)c1")
0.0
>>> cat("COc1ccc(-c2nc(SCC(=O)N3CCN(c4ccc(F)cc4)CC3)n[nH]2)cc1")
0.0
>>> cat("Cc1nc2ccn(Cc3cccnc3)c(=O)c2cc1C(=O)NCc1ccccc1")
0.0
>>> cat("COCCNC(=O)CSc1nc2ccccc2nc1Cc1ccc(C)cc1")
0.0
>>> cat("COc1cccc(CNC(=O)c2cc3c(=O)n(Cc4cccnc4)ccc3nc2C)c1")
0.0
